In this section we review reported Kd values for a set of binders.
- target_under_test: T1, HuMER.Ig1 (G76-G195) (human, UniProt Q12866 76-195)
- T1 construct: also called human MerTK Ig-like 1 domain
- T1 sequence: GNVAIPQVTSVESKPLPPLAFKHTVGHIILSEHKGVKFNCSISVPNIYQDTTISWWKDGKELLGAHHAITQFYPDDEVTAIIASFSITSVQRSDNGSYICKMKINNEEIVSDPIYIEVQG
- test_name: SPR BIAcore T200, Ab captured, 25C
State just the number; it will be interpreted in nM.

Example cases with answers are listed next.
{"binder": "Rbt12H4 (antibody, V domains shown, Recombinant rabbit monoclonal antibody, Expi293, protein A purified) VH: QSVEESGGRLVTPGTPLTVTCTVSGFSLSVYGMGWVRQAPGKGLEYIGFINNVGNTYYASWAKGRFTISKTSTTVDLKITSPTTEDTATYFCAKGGGGDWGYFNIWGPGTLVTVSL VL: DVVMTQTPASVEAAVGGTVTIKCQASQSIGNALAWYQQKPGQRPKLLIYAASNLASGVPSRFAGSGSGTQFTLTISDLECADAATYYCQTYYAINRYGGAFGGGTEVVVK", "Kd / nM": 16.7}
{"binder": "Rbt18G7 (antibody, V domains shown, Recombinant rabbit monoclonal antibody, Expi293, protein A purified) VH: QSLEESGGRLVTPGTPLTLTCTVSGIDLSSYALGWVRQAPGKGLEYIGIISSTGTTYYATWAKGRFTISKTSSTTVDLKITGPTTEDTATYFCARGAYAGYVAFGPYYFHIWGPGTLVTISL VL: DIVMTQTPASVEAAVGGTVTIKCQASQSISNFLAWYQQKPGQPPKVLIYAASHLASGVPSRFKGSGSGTQFTLTISDLECADAATYYCQSYFYSSTSIYNAFGGGTEVVVR", "Kd / nM": 0.5}
{"binder": "Rbt11G11 (antibody, V domains shown, Recombinant rabbit monoclonal antibody, Expi293, protein A purified) VH: QELVESGGGLVQAGESLKLSCKASGIDFSSYGISWVRQAPGKGLEWIAYIYPGFGITNYAHSVKGRFTISSDNAQNTVFLQMPSLTASDTATYFCARDLDYTGGVVGYAYVTYYFTLWGPGTLVTVSS VL: DPVLTQTPSSVEAAVGGTVTIKCQASESISSRLAWYQQKPGQPPKLLIYSASTLASGVSSRFKGSGSGTEFTLTISDLECADAATYYCQTYYGGSTTGWYVFGGGTEVVVK", "Kd / nM": 39.8}

Let us examine a further case.
Quick one: Kd for Rbt13B4 (antibody, V domains shown, Recombinant rabbit monoclonal antibody, Expi293, protein A purified; also called Rb13B4) VH: QSVEESGGRLVTPGTPLTLTCTVSGFSLSSYAMGWVRQAPGKGLEWIGIINSYGNTYYANWAKGRFTISRTSTTVDLRMPSLTTEDTATYFCARDPGVSSNLWGPGTLVTVSS VL: DVVMTQTPASVSEPVGGTVTIKCQASQNIYSGLAWYQQKPGQPPKLLIYGASKLASGVSSRFKGSGSGTEFTLTISDLECADAATYYCQATYYSSNSVAFGGGTEVVVK ?
0.3

Where these numbers come from: patent US20220135701A1
